Assay: cn = amount concentration of the nth substance listed, in mol/dm3
Conditions: 303.15 K; 101 kPa; Liquid; c1 = 0.8
Observation Type: viscosity (mPa·s)

Below: 3 compounds and their reported viscosity.
OC[C@@H](O)[C@@H](O)[C@H](O)[C@H](O)CO [mannitol] + O :: 1.253
OC[C@@H](O)[C@@H](O)CO [meso-1,2,3,4-butanetetrol] + O :: 1.045
OC[C@@H](O)[C@@H](O)[C@H](O)[C@@H](O)CO [D-sorbitol] + O :: 1.202

(I) OC[C@@H](O)[C@H](O)[C@@H](O)CO [xylitol] + O
(II) OC[C@@H](O)[C@@H](O[C@H]1O[C@H](CO)[C@@H](O)[C@H](O)[C@H]1O)[C@H](O)[C@@H](O)CO [4-O-α-D-glucopyranosyl-D-glucitol] + O
# input Hey, between I and II which has a smaller measured viscosity? Reply with the label of the item you choose.
# output I
(I: 1.123 mPa·s, II: 1.825 mPa·s)
